# measurement target: VR1 (human) (Homo sapiens, UniProt Q8NER1)
# Construct: expressed in transfected cells; host or cells: CHO K1 cells (ECACC)
# Sequence (Q8NER1 whole entry): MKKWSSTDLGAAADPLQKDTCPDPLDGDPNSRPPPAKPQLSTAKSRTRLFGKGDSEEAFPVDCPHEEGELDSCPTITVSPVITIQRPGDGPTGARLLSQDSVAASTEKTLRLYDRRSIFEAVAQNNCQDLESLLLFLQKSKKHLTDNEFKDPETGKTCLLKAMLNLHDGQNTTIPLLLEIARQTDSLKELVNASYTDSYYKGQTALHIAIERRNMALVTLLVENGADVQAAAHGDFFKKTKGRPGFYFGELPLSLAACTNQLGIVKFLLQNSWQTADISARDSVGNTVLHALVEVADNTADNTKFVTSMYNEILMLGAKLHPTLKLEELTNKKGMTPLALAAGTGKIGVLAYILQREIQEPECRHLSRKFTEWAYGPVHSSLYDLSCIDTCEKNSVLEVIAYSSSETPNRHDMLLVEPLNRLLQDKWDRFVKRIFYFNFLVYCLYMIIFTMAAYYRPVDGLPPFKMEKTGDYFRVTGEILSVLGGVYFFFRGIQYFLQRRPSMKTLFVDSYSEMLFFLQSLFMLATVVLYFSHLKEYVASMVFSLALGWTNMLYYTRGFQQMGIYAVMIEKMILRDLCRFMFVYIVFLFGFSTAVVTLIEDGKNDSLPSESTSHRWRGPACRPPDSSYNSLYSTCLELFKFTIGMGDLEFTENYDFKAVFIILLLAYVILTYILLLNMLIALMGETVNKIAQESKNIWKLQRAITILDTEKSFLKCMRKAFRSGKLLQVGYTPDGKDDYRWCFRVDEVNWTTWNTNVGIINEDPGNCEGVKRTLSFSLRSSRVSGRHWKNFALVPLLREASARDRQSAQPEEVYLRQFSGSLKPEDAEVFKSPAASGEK
# assay explanation: FLIPR Ca2+ influx assay in CHO K1 cells stably transfected with the VR1 gene (functional investigation II)
# Type: cell-based
# measurement conditions: VR1 human; read-out: IC50 (human)
assay readout: pIC50
Scale: pIC50 equals -log10([C]), with [C] in mol/L.

For VR1 (human) (Homo sapiens, UniProt Q8NER1), provide pIC50 of CS(=O)(=O)Nc1ccc(CNC(=S)NCc2ccc(S(F)(F)(F)(F)F)cc2)cc1F [Example 1] please.
6.10
